meta.source: patent US20250361322A1

# target.system: T1, rabbit TF ECD-His (TF-His) protein (rabbit (Oryctolagus cuniculus), UniProt P24055 33-250)
# T1 construct: also called rabbit TF-His
# T1 sequence (P24055 other isoform, or with tags, fused parts or gaps): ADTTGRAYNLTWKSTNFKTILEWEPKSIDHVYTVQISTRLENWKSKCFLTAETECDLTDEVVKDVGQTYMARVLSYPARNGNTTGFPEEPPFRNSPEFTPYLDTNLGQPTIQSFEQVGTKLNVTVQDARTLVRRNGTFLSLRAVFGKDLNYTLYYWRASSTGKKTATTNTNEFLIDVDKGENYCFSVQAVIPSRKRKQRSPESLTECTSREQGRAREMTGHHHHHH
# protocol.details: Biacore; antibody captured by anti-human IgG on CM5 chip, titration of rabbit TF-His, 1:1 model
recorded.metric: Kd

binder: anti-TF antibody 25G9 (antibody, human IgG1, V domains shown, Human IgG1) VH: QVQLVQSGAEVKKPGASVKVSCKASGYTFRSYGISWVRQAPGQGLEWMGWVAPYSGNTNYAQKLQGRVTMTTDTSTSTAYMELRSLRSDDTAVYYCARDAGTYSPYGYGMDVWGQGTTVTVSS VL: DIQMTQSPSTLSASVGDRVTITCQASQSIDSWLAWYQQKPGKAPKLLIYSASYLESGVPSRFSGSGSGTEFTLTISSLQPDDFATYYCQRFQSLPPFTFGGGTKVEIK
result: 4.2 nM

binder: anti-TF antibody 25A (antibody, human IgG1, V domains shown, Human IgG1) VH: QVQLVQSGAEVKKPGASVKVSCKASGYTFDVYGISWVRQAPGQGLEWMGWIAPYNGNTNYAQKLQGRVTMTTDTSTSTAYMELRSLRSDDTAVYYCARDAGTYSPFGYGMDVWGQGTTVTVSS VL: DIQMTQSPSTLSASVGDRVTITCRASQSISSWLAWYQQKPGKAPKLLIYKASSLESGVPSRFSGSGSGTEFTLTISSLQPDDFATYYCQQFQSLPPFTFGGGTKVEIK
result: 50.5 nM

binder: anti-TF antibody 25A5-T (antibody, human IgG1, V domains shown, Human IgG1) VH: QVQLVQSGAEVKKPGASVKVSCKASGYTFDAYGISWVRQAPGQGLEWMGWIAPYSGNTNYAQKLQGRVTMTTDTSTSTAYMELRSLRSDDTAVYYCARDAGTYSPFGYGMDVWGQGTTVTVSS VL: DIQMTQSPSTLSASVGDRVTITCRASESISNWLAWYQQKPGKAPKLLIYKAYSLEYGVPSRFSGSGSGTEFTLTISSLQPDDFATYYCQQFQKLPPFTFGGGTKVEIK
result: 5.4 nM
